List of DDA + blood values.
Test system: S. aureus ATCC 29213
PROTOCOL SUMMARY: Supplemented disc diffusion assay (DDA + salt, lipid or blood)
Format: cell-based, Staphylococcus aureus
ASSAY CONDITIONS: agar supplemented with blood, 200 μg per disc (thymoquinone 50 μg)
Method: The staphylococci and enterococci were cultured and maintained on Mueller-Hinton Medium (agar and broth) at pH 7.2; they were incubated aerobically at 37° C. for 24 hours. A sterile paper disc was impregnated with a sample of the test compound and a minimum of 30 minutes allowed for the solvents to evaporate as far as possible. […] The diameter of this zone of “inhibition” was measured using a ProtoCOL™ automated zone sizer (Synbiosis, Cambridge, UK). […]
OBSERVABLE: DDA + blood (mm)

Oc1ccc(O)cc1 [p-hydroquinone] = 14.01
CC(C)(C)c1cc(O)ccc1O [TBHQ, t-butyl hydroquinone] = 10.89
CCc1cc(O)ccc1O [2-ethyl-p-hydroquinone] = 17.74
O=C1C=CC(=O)C=C1 [p-benzoquinone] = 20.31
Cc1c(O)ccc(O)c1C [2,3-dimethyl-p-hydroquinone] = 14.32
CC1=CC(=O)C(C(C)C)=CC1=O [thymoquinone, 2-iso-propyl-5-methyl-p-benzoquinone] = 0.0
Cc1cc(O)c(C(C)C)cc1O [thymohydroquinone, 2-iso-propyl-5-methyl-p-hydroquinone] = 10.27
Cc1cc(O)ccc1O [2-methyl-p-hydroquinone] = 18.74

###

List of DDA values.
Test system: S. aureus ATCC 29213
PROTOCOL SUMMARY: Disc diffusion assay (DDA)
Assay type: cell-based, Staphylococcus aureus
ASSAY CONDITIONS: Table 1, zone diameter, 200 μg per disc (thymoquinone 50 μg)
OBSERVABLE: DDA

Oc1ccc(O)cc1 [p-hydroquinone] = 18.94 mm
Cc1cc(O)ccc1O [2-methyl-p-hydroquinone] = 25.70 mm
CC(C)(C)c1cc(O)ccc1O [TBHQ, t-butyl hydroquinone] = 41.77 mm
Cc1cc(O)c(C(C)C)cc1O [thymohydroquinone, 2-iso-propyl-5-methyl-p-hydroquinone] = 57.62 mm

###

Tested on: S. aureus ATCC 29213
PROTOCOL SUMMARY: Synergy disc diffusion assay (SDDA)
Assay type: cell-based, Staphylococcus aureus
ASSAY CONDITIONS: quinone combined with BP on one disc, 200 μg of each (thymoquinone 50 μg)
OBSERVABLE: SDDA with BP

Oc1ccc(O)cc1 [p-hydroquinone] = 33.36 mm
O=C1C=CC(=O)C=C1 = 34.38 mm
CC(C)(C)c1cc(O)ccc1O [TBHQ, t-butyl hydroquinone] = 68.54 mm
CC1=CC(=O)C(C(C)C)=CC1=O = 23.24 mm
CCc1cc(O)ccc1O [2-ethyl-p-hydroquinone] = 30.19 mm
Cc1cc(O)ccc1O [2-methyl-p-hydroquinone] = 32.77 mm
Cc1cc(O)c(C(C)C)cc1O [thymohydroquinone, 2-iso-propyl-5-methyl-p-hydroquinone] = 75.18 mm
Cc1c(O)ccc(O)c1C [2,3-dimethyl-p-hydroquinone] = 41.25 mm

###

System: S. aureus ATCC 29213
PROTOCOL SUMMARY: Synergy disc diffusion assay (SDDA)
Format: cell-based, Staphylococcus aureus
ASSAY CONDITIONS: quinone + BP, over larger single-compound zone diameter
OBSERVABLE: SDDA increase

O=C1C=CC(=O)C=C1 = 5.03 mm
CCc1cc(O)ccc1O [2-ethyl-p-hydroquinone] = 9.13 mm
CC(C)(C)c1cc(O)ccc1O [TBHQ, t-butyl hydroquinone] = 26.77 mm
Cc1c(O)ccc(O)c1C [2,3-dimethyl-p-hydroquinone] = 7.83 mm
Cc1cc(O)c(C(C)C)cc1O [thymohydroquinone, 2-iso-propyl-5-methyl-p-hydroquinone] = 17.56 mm
CC1=CC(=O)C(C(C)C)=CC1=O = 7.60 mm
Oc1ccc(O)cc1 [p-hydroquinone] = 14.42 mm
Cc1cc(O)ccc1O [2-methyl-p-hydroquinone] = 7.07 mm

Source listed as patent US20080262097A1.
